tested on: K328M-Wee1-Luc fusion protein in transiently transfected HeLa cells; assay: K328M-Wee1-Luc degradation; format: cell-based; conditions: read-out: EC50, non-cryopreserved cells; non-cryopreserved cell suspensions
Where a SMILES comes first, the peptide text is derived from it. The star is where a group is joined. Cbz = O=C(OCc1ccccc1)*
value-kind: pEC50
Entry type: numeric. Quantity: pEC50, the -log10 of concentration in molar units.

Req: I would be grateful if you could share the reported pEC50 for CC(C)C[C@@H](C=O)NC(=O)[C@H](CC(C)C)NC(=O)[C@H](CC(C)C)NC(=O)OCc1ccccc1 [MG132, Z-Leu-Leu-Leu-CHO] (Cbz-Leu-Leu-Leu-aldehyde) .
Resp: 5.27
